For each of the compounds below, state its MIC.
Tested on: MSSA (Methicillin-susceptible Staphylococcus aureus)
Test: Minimum inhibitory concentration (broth microdilution) and FIC index
Type: cell-based
Conditions: Table 3; MSSA; Tellimagrandin II (40 μg/ml) +
Answers are plain numbers, in µg/mL.

Answered examples (2):
# COMPOUND_STRUCTURE, MIC (µg/mL)
data = [
    ("C[C@H]1COc2c(N3CCN(C)CC3)c(F)cc3c(=O)c(C(=O)O)cn1c23", 512),
    ("C[C@H]1c2cccc(O)c2C(=O)C2=C(O)[C@]3(O)C(=O)C(C(N)=O)=C(O)[C@@H](N(C)C)[C@@H]3[C@@H](O)[C@@H]21", 8),
]

Field: next compound
Lab note: "Cc1onc(-c2ccccc2)c1C(=O)N[C@@H]1C(=O)N2[C@@H]1SC(C)(C)[C@@H]2C(=O)O" gave MIC of 2

---

Tested on: MRSA 19615
Experiment: Minimum inhibitory concentration (broth microdilution) and FIC index
Type: cell-based, Staphylococcus aureus
Settings: Staphylococcus aureus, MRSA, Table 3; 19615; Tellimagrandin II (40 μg/ml) −; read-out: MIC
READOUT_TYPE: MIC
Field note: include the unit after the figure.

Consider the reported MIC for these compounds:
# COMPOUND_STRUCTURE, MIC
records = [
    ("C[C@H]1c2cccc(O)c2C(=O)C2=C(O)[C@]3(O)C(=O)C(C(N)=O)=C(O)[C@@H](N(C)C)[C@@H]3[C@@H](O)[C@@H]21", "512 µg/mL"),
    ("Cc1onc(-c2ccccc2)c1C(=O)N[C@@H]1C(=O)N2[C@@H]1SC(C)(C)[C@@H]2C(=O)O", "512 µg/mL"),
    ("C[C@H]1COc2c(N3CCN(C)CC3)c(F)cc3c(=O)c(C(=O)O)cn1c23", "512 µg/mL"),
]

Okay, now this compound:
Looking up "NC[C@H]1O[C@H](O[C@H]2[C@H](O)[C@@H](O[C@H]3O[C@H](CO)[C@@H](O)[C@H](N)[C@H]3O)[C@H](N)C[C@@H]2N)[C@H](O)[C@@H](O)[C@@H]1O" , I see its MIC listed as 512 µg/mL

---

Test system: MSSA (Methicillin-susceptible Staphylococcus aureus)
Assay: Minimum inhibitory concentration (broth microdilution) and FIC index
Format: cell-based
Conditions: Table 3; MSSA; Tellimagrandin II (40 μg/ml) +
READOUT_TYPE: MIC (µg/mL)
Give bare numbers, in µg/mL.

// each compound listed below needs its MIC
1. CC[C@H]1OC(=O)[C@H](C)[C@@H](O[C@H]2C[C@@](C)(OC)[C@@H](O)[C@H](C)O2)[C@H](C)[C@@H](O[C@@H]2O[C@H](C)C[C@H](N(C)C)[C@H]2O)[C@](C)(O)C[C@@H](C)C(=O)[C@H](C)[C@@H](O)[C@]1(C)O
2. CC1(C)S[C@@H]2[C@H](NC(=O)[C@H](N)c3ccccc3)C(=O)N2[C@H]1C(=O)O

1: 64; 2: 256

Data credit: patent US8975234B2
